Origin of values: PubChem BioAssay (NCATS)

- Test system: CP329
- procedureSummary: qHTS profiling for inhibitors of Plasmodium falciparum proliferation (AID 504749); also: nearly all actives have a fitted effect of over 60% in size
- assayConditions: P. falciparum in erythrocytes, SYBR Green DNA, 72 h; series mostly up to 28.7 µM
Inconclusive results are not listed. Active and inactive are the calls of the source. Calls follow the shape of the dose curve; as a rule, active = well fitted inhibition curve with a large enough effect; inconclusive = small, poorly fitted or top-dose-only effect; inactive = flat fitted curve, though single readings scatter.
Returns: one label drawn from active, inactive

Exam item: Just curious, what result did C/C=C1\C2C=C(C)CC1(N)c1ccc(=O)[nH]c1C2 (centres undefined) get here?
Marked response: inactive

Exam item: Then what about the compound C[C@@H](C(=O)O)c1ccc(-c2ccccc2)c(F)c1 ?
Marked response: inactive

Exam item: Then what about the compound O=C(CC1NCCC[C@H]1O)Cn1cnc2cc(Br)c(Cl)cc2c1=O (some centres undefined) ?
Marked response: active

Exam item: Then what about the compound CCCCC(=O)N(Cc1ccc(-c2ccccc2-c2nn[nH]n2)cc1)C(C(=O)O)C(C)C (centres undefined) ?
Marked response: inactive
